Molecular target: cytoplasmic domain of the human CSF-1R (Homo sapiens)
Construct: Recombinant protein corresponding to the cytoplasmic domain of the human CSF-1R; purchased Invitrogen Corporation, Carlsbad, Calif; U.S.A. PV3249
Sequence (P07333 539-972 limits assumed): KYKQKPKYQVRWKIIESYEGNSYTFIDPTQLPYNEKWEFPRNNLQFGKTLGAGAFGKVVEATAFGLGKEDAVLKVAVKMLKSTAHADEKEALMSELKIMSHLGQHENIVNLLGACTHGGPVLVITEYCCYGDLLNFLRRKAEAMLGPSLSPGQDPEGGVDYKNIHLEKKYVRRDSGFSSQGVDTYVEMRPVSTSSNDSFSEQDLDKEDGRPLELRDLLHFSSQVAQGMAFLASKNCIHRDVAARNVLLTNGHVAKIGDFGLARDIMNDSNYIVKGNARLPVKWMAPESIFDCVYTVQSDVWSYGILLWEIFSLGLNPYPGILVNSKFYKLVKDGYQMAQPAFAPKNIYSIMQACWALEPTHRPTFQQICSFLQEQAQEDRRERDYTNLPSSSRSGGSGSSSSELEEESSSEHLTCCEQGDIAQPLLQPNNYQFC
Assay: In vitro kinase assay for CSF-1R (AlphaScreen)
Assay type: biochemical
Settings: tested at about 1 μM
OBSERVED PROPERTY: inhibition at 1 µM (%)

                                   compound   observed_property  observed
0  NC(=O)c1cc(Oc2ccc3nc(Nc4ccccc4N4CCOCC4)ncc3c2)ccn1 [Example 33]  inhibition at 1 µM        84
1  CNC(=O)c1cc(Oc2ccc3nc(NC4CCOCC4)ncc3c2)ccn1 [Example 58]  inhibition at 1 µM        65
2  CNC(=O)c1cc(Oc2ccc3nc(N[C@@H]4CCCC[C@H]4N)ncc3c2)ccn1 [Example 73]  inhibition at 1 µM        62
3  Nc1cc(Oc2ccc3nc(Nc4ccccc4N4CCOCC4)ncc3c2)ccn1 [Example 29]  inhibition at 1 µM        90
4  c1cc(Cc2ccc3nc(NCC4CCCCC4)sc3c2)ccn1 [Example 77]  inhibition at 1 µM        74
5  CNC(=O)c1cc(Oc2ccc3nc(NCc4ccc5c(c4)OCCO5)ncc3c2)ccn1 [Example 43]  inhibition at 1 µM        98
6  CNC(=O)c1cc(Oc2ccc3nc(N[C@@H]4CCCC[C@H]4O)[nH]c3c2)ccn1 [Example 82]  inhibition at 1 µM        99
7  CNC(=O)c1cc(Sc2ccc3nc(NCC4CCCCC4)sc3c2)ccn1 [Example 78]  inhibition at 1 µM       100
8  CNC(=O)c1cc(Oc2ccc3nc(Nc4ccccc4OC(C)C)ncc3c2)ccn1 [Example 46]  inhibition at 1 µM       100

1 = CNC(=O)c1cc(Oc2ccc3nc(NC(C)c4nccs4)ncc3c2)ccn1 (centres unmarked) [Example 48]
2 = CCCNc1ncc2cc(Oc3ccnc(C(=O)NC)c3)ccc2n1 [Example 52]
Returns: the label, 1 or 2 , whose recorded inhibition at 1 µM is the lower number. State the label of the item chosen.
2

----------
molecular target: cytoplasmic domain of the human CSF-1R (Homo sapiens, UniProt P07333); construct: Recombinant protein corresponding to the cytoplasmic domain of the human CSF-1R; purchased Invitrogen Corporation, Carlsbad, Calif; U.S.A. PV3249; assay: In vitro kinase assay for CSF-1R (AlphaScreen); type: biochemical; details: tested at about 1 μM
OBSERVED PROPERTY: inhibition at 1 µM (%)

                                   molecule  observed
0  CC(=O)Nc1cc(Oc2ccc3nc(Nc4ccccc4N4CCOCC4)ncc3c2)ccn1        99
1  CNC(=O)c1cc(Oc2ccc3nc(Nc4ccccc4CN4CCOCC4)ncc3c2)ccn1        96

I = Cn1cc(-c2cc(Oc3ccc4nc(NCC5CCCCC5)ncc4c3)ccn2)cn1
II = c1ccc(N2CCOCC2)c(Nc2ncc3cc(Oc4ccncc4)ccc3n2)c1
Field: entry with larger inhibition at 1 µM (options I / II ). # reply format: chosen label
I
(I: 100%, II: 52%)

src = patent US20100261679A1
